From: patent EP3009422A1

# Test system: mouse islets
# ASSAY_PROCEDURE: Calcium imaging (fMCI) of beta cell activity in intact mouse islets
# Type: cell-based
# CONDITION_NOTES: mouse islets, concentration-response; read-out: EC50 for cytosolic Ca^2+ rises
pEC50: −log10 of the molar value.
RESULT_TYPE: pEC50

compound="CCC1=C(C)CN(C(=O)NCCc2ccc(S(=O)(=O)NC(=O)N[C@H]3CC[C@H](C)CC3)cc2)C1=O [glimepiride, reference compound]" system="mouse islets" measured_result=6.40
compound="CCN(CC)c1ccc(/N=N\\c2ccc(S(=O)(=O)NC(=O)NC3CCCCC3)cc2)cc1 [cis-JB253]" system="mouse islets" measured_result=6.17
